Test method notes: modulators of CIT2-GFP expression in yeast, confirmation, S. cerevisiae, GFP fusion, cherry picks, mother/daughter gates (AID 2274)
Condition label: S. cerevisiae CIT2-GFP strain, flow cytometry, 3 h; at 10 µM; stronger effect = higher value
Kindly supply the reported GFP response, % of DMSO values for the records listed here.
Hi! Could you send only the number? It should be in %, unit omitted.

Prompt: Which GFP response, % of DMSO reading was recorded for the compound O=C1C(Cl)=C(N2CCN(Cc3ccccc3)CC2)C(=O)N1Cc1ccccc1 ?
Completion: 100

Prompt: Subsequent entry: COCCCN1C(=O)C2C(C(=O)Nc3cc(C)cc(C)c3)C3C=CC2(O3)C1C(=O)NC1CCCCC1 (stereo unspecified)
Completion: 112

Prompt: Subsequent entry: Cc1ccccc1CN1CCSc2sccc2C1=O
Completion: 97.8

Prompt: Subsequent entry: O=C(/C(=C/O)N=Nc1ccc(Cl)cc1)c1ccncc1
Completion: 90.3

Prompt: Subsequent entry: Cc1nn2c(NCc3ccccn3)c3c(nc2c1-c1ccccc1)CCC3
Completion: 100

Prompt: Subsequent entry: CC(=O)Oc1ccc(N2C(=O)C3C4C=CC(CO)(O4)C3C2=O)cc1 (stereo unspecified)
Completion: 109

====

Test method notes: LAP4-GFP expression modulators in yeast, confirmation, cell-based, cherry picks, flow cytometry, mother/daughter gates (AID 2271);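 also: ratio of sample to DMSO plate mean so 100% equals DMSO level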
Condition label: S. cerevisiae LAP4-GFP strain, 3 h, measured here: daughter cell gate response, at 10 µM, stronger effect = higher value, 100 means same as DMSO control
Kindly supply the reported GFP response relative to DMSO values for the records listed here.
Hi! Could you send only the number? It should be in %, unit omitted.

Prompt: Which GFP response relative to DMSO reading was recorded for the compound O=C(O)CCc1ccc(-c2ccccc2)o1 ?
Completion: 138

Prompt: Subsequent entry: Cc1ccn2c(NC(=O)c3ccco3)c(-c3ccccc3)nc2c1
Completion: 96

Prompt: Subsequent entry: Cc1cc(Br)c2c(c1)/C(=C/C(=O)c1cccs1)C(=O)N2
Completion: 115

Prompt: Subsequent entry: CCC(=O)Nc1ccc(NC(=O)c2cc3ccccc3o2)c(OC)c1
Completion: 95.9

Prompt: Subsequent entry: CCOC(=O)C1=C(Cc2ccc(Cl)cc2)C(=O)c2ccccc2C1=O
Completion: 107

Prompt: Subsequent entry: N#C/C(=C\c1c(N2CCC(C(N)=O)CC2)nc2ccccn2c1=O)C(=O)NCc1ccco1
Completion: 99.3

Prompt: Subsequent entry: Cc1[nH]c2ccccc2c1C(c1ccccn1)N1CCC(C(N)=O)CC1 (stereo unspecified)
Completion: 99.2

Prompt: Subsequent entry: Cc1ccc(S(=O)(=O)N2C3C=CC(C3)C2C(=O)O)cc1 (stereo unspecified)
Completion: 96

Prompt: Subsequent entry: Fc1ccc(C2CC(c3ccccc3)n3ncnc3N2)cc1 (stereo unspecified)
Completion: 94.1

Prompt: Subsequent entry: O=C(OCC(=O)N1CCN(C(=O)c2ccco2)CC1)c1cc(-c2ccc(F)cc2)nc2ccccc12
Completion: 107

Prompt: Subsequent entry: O=C1c2ccccc2C(=O)c2c([N+](=O)[O-])ccc(O)c21
Completion: 114

Prompt: Subsequent entry: O=C1C2C3C=CC(CNS(=O)(=O)c4ccccc4)(O3)C2C(=O)N1c1ccc(Cl)cc1 (stereo unspecified)
Completion: 109

Prompt: Subsequent entry: O=[N+]([O-])c1cc(F)c2cccnc2c1O
Completion: 176

Prompt: Subsequent entry: O=C(CCc1ccccc1)NNC(=S)NC(=O)c1ccccc1
Completion: 180

Prompt: Subsequent entry: CSc1ccc(/C=C/C(=O)c2ccc(NC(=O)C(C)C)cc2)cc1
Completion: 103

Prompt: Subsequent entry: CCCC(=O)Nc1ccc(C(=O)/C=C/c2ccc(SC)cc2)cc1
Completion: 103

Prompt: Subsequent entry: O=C(c1cccc2ccccc12)N1CCN(c2ccccc2F)CC1
Completion: 99.1

Prompt: Subsequent entry: COC(=O)c1ccc(/C=N/OCC(=O)NCCc2ccc(OC)c(OC)c2)cc1
Completion: 102

Prompt: Subsequent entry: CN1C(=O)/C(=N\OC(=O)c2cccc3ccccc23)c2ccccc21
Completion: 140

Prompt: Subsequent entry: Cc1ccc(S(=O)(=O)N2CCCC2C(=O)Oc2ccccc2)cc1 (stereo unspecified)
Completion: 99.2

Prompt: Subsequent entry: CCCc1[nH]nc2c1C(c1ccc(OC)cc1OC)C(C#N)=C(N)O2 (stereo unspecified)
Completion: 91.2

Prompt: Subsequent entry: Cc1ccc(NC(=O)ON=C2CCCC2)cc1
Completion: 115

Prompt: Subsequent entry: O=C(CSc1ccc(-c2ccccn2)nn1)N1CCCCC1
Completion: 101

Prompt: Subsequent entry: CCOc1ccc(S(=O)(=O)n2ccnc2C)cc1
Completion: 97.2

Prompt: Subsequent entry: C=CCOc1ccc(C(=O)n2cc(C(=O)OC)c3ccccc32)cc1
Completion: 99.2

Prompt: Subsequent entry: CCOc1c(Br)ccc2c1sc1nc[nH]c(=O)c12
Completion: 99

Prompt: Subsequent entry: Cc1ccc(S(=O)(=O)N(CC(=O)Nc2cccnc2)c2ccccc2C)cc1
Completion: 95.9

Prompt: Subsequent entry: CCc1nnc(NC(=O)c2ccc(S(=O)(=O)N(CC)Cc3ccccc3)cc2)o1
Completion: 105

Prompt: Subsequent entry: Cc1cc(O)c(C(=O)/C=C/c2c(F)c(F)c(F)c(F)c2F)c(=O)o1
Completion: 145

Prompt: Subsequent entry: CCOc1ccc(C(=O)/C=C/c2ccccc2C(F)(F)F)cc1
Completion: 99.2

Prompt: Subsequent entry: Cc1cc(NCCCN2CCOCC2)n2ncc(-c3ccccc3)c2n1
Completion: 95.6

Prompt: Subsequent entry: CCOc1cc(/C=C2\N=C(C)OC2=O)cc(Br)c1OCCc1ccccc1
Completion: 95

Prompt: Subsequent entry: CCN(c1ccccc1)S(=O)(=O)c1ccc(C(=O)Nc2nnc(COC)o2)cc1
Completion: 97.2

Prompt: Subsequent entry: C/C(=N\NC(=O)c1ccc(Cl)c(Cl)c1)c1cccc(NC(=O)C(C)C)c1
Completion: 93.6

Prompt: Subsequent entry: Cc1ccc(NC(=S)c2nc3ccccc3[nH]2)cc1
Completion: 120

Prompt: Subsequent entry: Cc1ccc(/C=C2/NC(=O)N(Cc3ccccc3)C2=O)o1
Completion: 110

Prompt: Subsequent entry: CCc1nnc(NC(=O)c2ccc(S(=O)(=O)N(C)Cc3ccccc3)cc2)o1
Completion: 106

Prompt: Subsequent entry: O=C(c1ccccc1)c1ccccc1N1C(=O)C=CC1=O
Completion: 156

Prompt: Subsequent entry: CC(=O)c1sc(NC(=O)c2ccco2)nc1-c1ccccc1
Completion: 101

Prompt: Subsequent entry: CCCCOc1ccc(C(=O)N2CCN(c3ccc(N4CCOCC4)nn3)CC2)cc1
Completion: 97.6

Prompt: Subsequent entry: Clc1ccc(-n2cccc2)cn1
Completion: 95.6

Prompt: Subsequent entry: COc1ccc(/C=N/c2c(-c3ccco3)nc3ccccn23)cc1OC
Completion: 96.5

Prompt: Subsequent entry: CCCc1ccc(C(=O)N2CCN(c3ccccc3OCC)CC2)cc1
Completion: 93.6

Prompt: Subsequent entry: COc1ccc(OC)c(/C=C/C(=O)c2ccc(Cl)cc2)c1
Completion: 97.6

Prompt: Subsequent entry: O=C(c1cccc(COc2ccc(Cl)cc2Cl)c1)N1CCN(c2ccccn2)CC1
Completion: 107

Prompt: Subsequent entry: O=C(Nc1ccccc1)c1c(F)cccc1F
Completion: 97.5
